- TARGET OR SYSTEM: CYP3A4(BQ) (Homo sapiens, UniProt P08684)
- Sequence (P08684 whole entry): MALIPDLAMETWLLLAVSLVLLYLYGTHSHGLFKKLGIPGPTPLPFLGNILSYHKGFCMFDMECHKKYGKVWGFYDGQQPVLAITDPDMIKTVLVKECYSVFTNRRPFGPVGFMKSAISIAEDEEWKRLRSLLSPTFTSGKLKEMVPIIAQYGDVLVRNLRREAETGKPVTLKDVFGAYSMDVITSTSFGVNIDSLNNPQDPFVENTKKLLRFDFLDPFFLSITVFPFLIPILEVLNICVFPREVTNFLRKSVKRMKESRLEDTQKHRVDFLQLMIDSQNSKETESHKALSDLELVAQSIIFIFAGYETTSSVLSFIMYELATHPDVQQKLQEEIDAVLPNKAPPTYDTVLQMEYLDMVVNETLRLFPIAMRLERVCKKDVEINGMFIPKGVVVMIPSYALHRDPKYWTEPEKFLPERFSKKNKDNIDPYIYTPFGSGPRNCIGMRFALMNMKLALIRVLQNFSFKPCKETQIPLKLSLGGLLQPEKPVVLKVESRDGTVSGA
- ASSAY COMMENT: CYP3A4(BQ) inhibition (fluorescent substrate)
- Format: in vitro ADME
- CONDITION: read-out: Cyp IC50 3A4(BQ)
- Description: CYP (Cytochrome P450) enzymes are the major drug metabolizing enzymes present in the liver. The inhibition of CYP enzyme activity (IC50) for each of CYP1A2, CYP2C19, CYP2C9, CYP2D6, CYP3A4(BFC) and CYP3A4(BQ) is determined for compounds, where inhibition of metabolism of a known substrate leads to a decrease in the fluorescence of the metabolized product. The fluorescence of the product is monitored as a function of compound concentration. […]
MEASURE: IC50

INSERT INTO assay_data (smiles_record, test_result) VALUES
  ('CCCS(=O)(=O)Nc1ccc(F)c(C(=O)c2c[nH]c3ncc(-c4ccc(S(=O)(=O)N(C)C)cc4)cc23)c1F', '> 10 µM'),
  ('CCCS(=O)(=O)Nc1ccc(F)c(C(=O)c2c[nH]c3ncc(-c4ccc(F)nc4)cc23)c1F', '> 10 µM'),
  ('COc1ncc(-c2cnc3[nH]cc(C(=O)c4c(F)ccc(NS(=O)(=O)c5cc(F)ccc5F)c4F)c3c2)cn1', '> 10 µM');

Batch request: IC50 per item, same order as input.
1. CCCS(=O)(=O)Nc1ccc(F)c(C(=O)c2c[nH]c3ncc(-c4ccc(S(=O)(=O)N5CCOCC5)cc4)cc23)c1F
2. CCCS(=O)(=O)Nc1ccc(F)c(C(=O)c2c[nH]c3ncc(-c4ccc(N5CCCC5)nc4)cc23)c1F
3. CCCS(=O)(=O)Nc1ccc(F)c(C(=O)c2c[nH]c3ncc(-c4cnn(CCN5CCOCC5)c4)cc23)c1F
4. O=C(c1c(F)ccc(NS(=O)(=O)c2c(F)cccc2F)c1F)c1c[nH]c2nccc(Cl)c12
5. CCCS(=O)(=O)Nc1ccc(F)c(C(=O)c2c[nH]c3ncc(-c4ccc(C(=O)NC5CC5)nc4)cc23)c1F
6. O=C(c1c(F)ccc(NS(=O)(=O)c2cc(F)ccc2F)c1F)c1c[nH]c2nccc(Cl)c12
7. O=C(c1c(F)ccc(NS(=O)(=O)c2cccnc2)c1F)c1c[nH]c2ncc(Cl)cc12
8. N#Cc1cnc2[nH]cc(C(=O)c3c(F)ccc(NS(=O)(=O)c4cccnc4)c3F)c2c1

Outgoing:
> 10 µM
> 10 µM
> 10 µM
> 10 µM
> 10 µM
> 10 µM
< 5 µM
< 5 µM

Please give IC50 for each item listed below.
1. CCCS(=O)(=O)Nc1ccc(F)c(C(=O)c2c[nH]c3ncc(-c4ccc(OCCCN5CCOCC5)nc4)cc23)c1F
2. CCCS(=O)(=O)Nc1ccc(F)c(C(=O)c2c[nH]c3ncc(-c4ccc(Cl)nc4)cc23)c1F
3. N#Cc1cnc2[nH]cc(C(=O)c3c(F)ccc(NS(=O)(=O)c4ccccc4F)c3F)c2c1
4. CCCS(=O)(=O)Nc1ccc(F)c(C(=O)c2c[nH]c3ncc(-c4cnc(C)nc4)cc23)c1F

Outgoing:
1. 5 to 10 µM
2. > 10 µM
3. > 10 µM
4. > 10 µM

Source listed as patent US8198273B2.
